- Tested on: HSV-1
- assay_remarks: activity selectivity assay, HSV-1 infected Vero cells (cytopathogenic effect, fluorescein diacetate readout)
- Type: cell-based, Herpes simplex virus
- condition_description: Human alphaherpesvirus 1
- Method: HSV (HSV-1 Walki, HSV-1F, HSV-2 MS, HSV clinical isolates and HSV resistant strains) was cultivated on Vero cells (ATCC CCL-81) under the following conditions: The cells were grown in M199 medium (5% foetal calf serum, 2 mM glutamine, 100 IU/mL penicillin, 100 μg/mL streptomycin) in cell culture bottles at 37° C. and 5% CO2. The cells were splitted twice per week (1:4). […]
measured_metric: IC50

Prompt line: So what IC50 did Cc1nc(N(C)C(=O)Cc2ccc(-c3cc(F)ccc3F)cc2)sc1S(C)(=N)=O (stereo not shown) [Example 7] get with HSV-1?
Response line: 25 to 100 nM

Prompt line: Also need Cc1nc(N(C)C(=O)Cc2ccc(-c3cc(F)ccc3F)cc2)sc1S(=N)(N)=O (stereo not shown) [Example 3] , thanks.
Response line: 5 to 50 nM

Prompt line: What do you have for Cc1nc(N(C)C(=O)Cc2ccc(-c3ccccn3)cc2)sc1S(=N)(N)=O (stereo not shown) [Example 3-1] ?
Response line: 5 to 50 nM

Prompt line: Then Nc1nc2c(ncn2COCCO)c(=O)[nH]1 [Acyclovir, reference compound] ?
Response line: 500 to 3000 nM

Prompt line: Would you mind doing Cc1nc(N(C)C(=O)Cc2ccc(-c3cc(F)ccc3F)cc2)sc1[S+](C)[O-] (stereo not shown) [Example 4] as well?
Response line: 100 to 500 nM

Prompt line: Now consider CSc1sc(N(C)C(=O)Cc2ccc(-c3cc(F)ccc3F)cc2)nc1C [Example P4b] .
Response line: 2000 to 6000 nM

Prompt line: Ok, now Cc1nc(N(C)C(=O)Cc2ccc(-c3cc(F)ccc3F)cc2)sc1P(=O)(O)O [Example 9]
Response line: 25000 to 100000 nM

Prompt line: Can you handle Cc1nc(N(C)C(=O)Cc2ccc(-c3cc(F)ccc3F)cc2)sc1S(=O)(=O)NC#N [Example 12] next?
Response line: 100 to 1000 nM

Prompt line: Same lookup for Cc1nc(N(C)C(=O)Cc2ccc(-c3cc(F)ccc3F)cc2)sc1/S(C)=N\C#N (stereo not shown) [Example 13] , please.
Response line: 300 to 3000 nM

Prompt line: Could you do the same for Cc1nc(N(C)C(=O)Cc2ccc(-c3cc(F)ccc3F)cc2)sc1S(C)(=O)=NC#N (stereo not shown) [Example 14] , please?
Response line: 1000 to 5000 nM
